# TGT: cyclooxygenase-2 (COX-2) (Homo sapiens, UniProt P35354)
# Construct: human osteosarcoma 143 cells (which specifically express cyclooxygenase-2); endogenous in cells; host or cells: human osteosarcoma 143 cells (whole cells, and microsomes prepared from them)
# Sequence (P35354 18-604): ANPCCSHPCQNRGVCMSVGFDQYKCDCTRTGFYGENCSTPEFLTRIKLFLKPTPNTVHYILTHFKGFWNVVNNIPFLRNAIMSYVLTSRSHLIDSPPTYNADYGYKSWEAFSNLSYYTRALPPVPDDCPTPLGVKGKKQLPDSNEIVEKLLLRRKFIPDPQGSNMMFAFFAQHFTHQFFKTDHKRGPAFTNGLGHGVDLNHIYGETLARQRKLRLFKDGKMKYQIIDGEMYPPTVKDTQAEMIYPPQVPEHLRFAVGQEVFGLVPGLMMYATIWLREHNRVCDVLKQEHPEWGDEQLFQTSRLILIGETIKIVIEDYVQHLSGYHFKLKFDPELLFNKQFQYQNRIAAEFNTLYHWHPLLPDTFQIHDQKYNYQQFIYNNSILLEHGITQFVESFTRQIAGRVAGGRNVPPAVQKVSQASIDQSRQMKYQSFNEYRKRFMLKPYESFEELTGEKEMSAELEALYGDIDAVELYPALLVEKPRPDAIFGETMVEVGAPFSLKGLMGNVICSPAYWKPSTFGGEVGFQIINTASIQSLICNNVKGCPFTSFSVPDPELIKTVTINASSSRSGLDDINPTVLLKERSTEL
# ASSAY PROCEDURE: Whole cell cyclooxygenase assay, COX-2 (PGE2 synthesis in response to arachidonic acid, radioimmunoassay), human osteosarcoma 143 cells
# Assay type: cell-based
# ASSAY CONDITIONS: 160 nM; read-out: Whole Cells COX-2 % inhib.
Please go through the items and note down their inhibition at 0.16 µM.
Give bare numbers, in %.

The examples below pair each entry with its known result.
CS(=O)(=O)c1ccc(C2=C(c3ccc(Cl)cc3Cl)C(=O)OC2)cc1 :: 87
CS(=O)(=O)c1ccc(C2=C(c3c(Cl)cccc3Cl)C(=O)OC2)cc1 :: 6
CS(=O)(=O)c1ccc(C2=C(c3c(F)cccc3F)C(=O)OC2)cc1 :: 77

Alright, here's another molecule for you.
Prompt: Quick check: inhibition at 0.16 µM of COc1ccc(C2=C(c3ccc(S(C)(=O)=O)cc3)COC2=O)cc1Br ?
Completion: 88

* * *

# TGT: cyclooxygenase-2 (COX-2) (Homo sapiens)
# Construct: human osteosarcoma 143 cells (which specifically express cyclooxygenase-2); endogenous in cells; host or cells: human osteosarcoma 143 cells (whole cells, and microsomes prepared from them)
# ASSAY PROCEDURE: Whole cell cyclooxygenase assay, COX-2 (PGE2 synthesis in response to arachidonic acid, radioimmunoassay), human osteosarcoma 143 cells
# Type: cell-based
# ASSAY CONDITIONS: 10 nM; read-out: Whole Cells COX-2 % inhib.
MEASUREMENT LABEL: inhibition at 0.01 µM (%)
One number for each entry, in %.

Quick request: inhibition at 0.01 µM for each listed item, please.
1. Cc1ccc(C2=C(c3ccc(S(C)(=O)=O)cc3)COC2=O)cc1Br
2. COc1ccc(C2=C(c3ccc(S(C)(=O)=O)cc3)COC2=O)cc1Cl
3. NS(=O)(=O)c1ccc(-c2sccc2-c2ccc(F)cc2)cc1
4. COc1ccc(C2=C(c3ccc(S(N)(=O)=O)cc3)COC2=O)cc1Cl
5. CS(=O)(=O)c1ccc(C2=C(c3ccc(Br)cc3)C(=O)OC2)cc1
6. COc1ccc(C2=C(c3ccc(S(N)(=O)=O)cc3)COC2=O)cc1Br

Completion:
78
53
41
54
70
81

* * *

Kindly supply the reported inhibition at 0.01 µM values for the records listed here.
# TGT: cyclooxygenase-2 (COX-2) (Homo sapiens, UniProt P35354)
# Construct: human osteosarcoma 143 cells (which specifically express cyclooxygenase-2); endogenous in cells; host or cells: human osteosarcoma 143 cells (whole cells, and microsomes prepared from them)
# ASSAY PROCEDURE: Whole cell cyclooxygenase assay, COX-2 (PGE2 synthesis in response to arachidonic acid, radioimmunoassay), human osteosarcoma 143 cells
# Type: cell-based
# ASSAY CONDITIONS: 10 nM; read-out: Whole Cells COX-2 % inhib.
Please format your answer as a value with the unit trailing.

CS(=O)(=O)c1ccc(-c2cc(C(=O)O)sc2-c2ccc(C(=O)O)cc2)cc1 :: 0%
O=C(NS(=O)(=O)c1ccc(-c2ccsc2-c2ccc(F)cc2)cc1)C(F)(F)F :: 73%
CS(=O)(=O)c1ccc(C2=C(c3ccc4ccccc4c3)C(=O)OC2)cc1 :: 53%

// for each molecule in input: emit inhibition at 0.01 µM
1. CS(=O)(=O)c1ccc(C2=C(c3ccc(F)c(Cl)c3)C(=O)OC2)cc1
2. CC(C)c1cc(-c2ccc(S(N)(=O)=O)cc2)c(-c2ccc(F)cc2)s1

Completion:
30%
42%

* * *

# TGT: cyclooxygenase-2 (COX-2) (Homo sapiens, UniProt P35354)
# Construct: human osteosarcoma 143 cells (which specifically express cyclooxygenase-2); endogenous in cells; host or cells: human osteosarcoma 143 cells (whole cells, and microsomes prepared from them)
# ASSAY PROCEDURE: Whole cell cyclooxygenase assay, COX-2 (PGE2 synthesis in response to arachidonic acid, radioimmunoassay), human osteosarcoma 143 cells
# Assay type: cell-based
# ASSAY CONDITIONS: 40 nM; read-out: Whole Cells COX-2 % inhib.
Please provide measured inhibition at 0.04 µM for the entries that follow.
Numbers only, in %.

Past entries and their recorded results:
CS(=O)(=O)c1ccc(C2=C(c3ccc(F)c(F)c3)C(=O)OC2)cc1 :: 50
CS(=O)(=O)c1ccc(C2=C(c3c(F)cccc3F)C(=O)OC2)cc1 :: 41

Below are some compounds; for each one, tell me its inhibition at 0.04 µM.
1. CS(=O)(=O)c1ccc(C2=C(c3ccc(Br)cc3F)C(=O)OC2)cc1
2. CS(=O)(=O)c1ccc(C2=C(c3ccc(Cl)cc3)C(=O)OC2)cc1
3. CS(=O)(=O)c1ccc(C2=C(c3ccc4ccccc4c3)C(=O)OC2)cc1

Completion:
1. 55
2. 94
3. 91

* * *

# TGT: cyclooxygenase-2 (COX-2) (Homo sapiens, UniProt P35354)
# Construct: human osteosarcoma 143 cells (which specifically express cyclooxygenase-2); endogenous in cells; host or cells: human osteosarcoma 143 cells (whole cells, and microsomes prepared from them)
# ASSAY PROCEDURE: Whole cell cyclooxygenase assay, COX-2 (PGE2 synthesis in response to arachidonic acid, radioimmunoassay), human osteosarcoma 143 cells
# Assay type: cell-based
# ASSAY CONDITIONS: 160 nM; read-out: Whole Cells COX-2 % inhib.
Would you mind telling me the reported inhibition at 0.16 µM of each entry?
Numbers only, in %.

COc1ccc(C2=C(c3ccc(S(N)(=O)=O)cc3)COC2=O)cc1Cl [Example 53] :: 102
NS(=O)(=O)c1ccc(C2=C(c3ccc(F)c(F)c3)C(=O)OC2)cc1 [Example 52] :: 102
CS(=O)(=O)c1ccc(C2=C(c3ccccc3F)C(=O)OC2)cc1 [Example 39] :: 84

// below: inhibition at 0.16 µM requested for another compound
Prompt: Test system cyclooxygenase-2 (COX-2) (Homo sapiens, UniProt P35354); read-out inhibition at 0.16 µM; what value for CS(=O)(=O)c1ccc(C2=C(c3ccc(F)c(Cl)c3)C(=O)OC2)cc1 [Example 34] ?
Completion: 102

* * *

# TGT: cyclooxygenase-2 (COX-2) (Homo sapiens)
# Construct: human osteosarcoma 143 cells (which specifically express cyclooxygenase-2); endogenous in cells; host or cells: human osteosarcoma 143 cells (whole cells, and microsomes prepared from them)
# ASSAY PROCEDURE: Whole cell cyclooxygenase assay, COX-2 (PGE2 synthesis in response to arachidonic acid, radioimmunoassay), human osteosarcoma 143 cells
# Type: cell-based
# ASSAY CONDITIONS: 10 nM; read-out: Whole Cells COX-2 % inhib.
For each entry below, report its inhibition at 0.01 µM value.
Answers are plain numbers, in %.

Study these solved cases before continuing.
NS(=O)(=O)c1ccc(-c2ccsc2-c2ccc(F)cc2)cc1 :: 69
CS(=O)(=O)c1ccc(C2=C(c3ccc(Cl)cc3)C(=O)OC2)cc1 :: 50
NS(=O)(=O)c1ccc(C2=C(c3ccc(F)c(F)c3)C(=O)OC2)cc1 :: 50
CS(=O)(=O)c1ccc(C2=C(c3ccc(Br)cc3Cl)C(=O)OC2)cc1 :: 7
CS(=O)(=O)c1ccc(C2=C(c3ccc(Br)c(Br)c3)C(=O)OC2)cc1 :: 16

Give measured inhibition at 0.01 µM for every item shown.
1. CSc1ccc(C2=C(c3ccc(S(C)(=O)=O)cc3)COC2=O)cc1
2. CS(=O)(=O)c1ccc(C2=C(c3ccc(Cl)c(F)c3)C(=O)OC2)cc1

Completion:
1. 43
2. 76

// for each compound in input: emit inhibition at 0.01 µM
1. CS(=O)(=O)c1ccc(-c2cnsc2-c2ccc(F)cc2)cc1
2. CS(=O)(=O)c1ccc(C2=C(c3ccccc3F)C(=O)OC2)cc1
3. CS(=O)(=O)c1ccc(C2=C(c3ccc(Br)c(F)c3)C(=O)OC2)cc1
4. CS(=O)(=O)c1ccc(C2=C(c3ccc(Cl)c(Cl)c3)C(=O)OC2)cc1
5. COc1ccc(C2=C(c3ccc(S(C)(=O)=O)cc3)COC2=O)cc1Br
6. COc1ccc(C2=C(c3ccc(S(C)(=O)=O)cc3)COC2=O)cc1F

Completion:
1. 41
2. 17
3. 61
4. 73
5. 25
6. 11
